assay: AUC (0 to 24 hrs) in rat at 10 mg/kg, po; format: ADME, organism-based; set-up: time < 24 hr, dose 10 mg/kg, route oral; details: plasma
READOUT TYPE: AUC(0-t) at 24 h (µM·h)

CCc1ccc2c(c1)c(-c1ccc[nH]c1=O)c(C(=O)NS(=O)(=O)CC)n2Cc1cc(F)ccc1F | 4.6
O=C(NS(=O)(=O)C1CC1)c1c(-c2ccc[nH]c2=O)c2cc(CC(F)(F)F)ccc2n1Cc1cc(F)ccc1F | 0.67
CCc1ccc2c(c1)c(-c1ccc[nH]c1=O)c(C(=O)NS(C)(=O)=O)n2Cc1cc(F)ccc1F | 72
Cc1ccc2c(c1)c(-c1ccc[nH]c1=O)c(C(=O)NS(C)(=O)=O)n2Cc1cc(F)ccc1F | 22
Cc1cc2c(-c3ccc[nH]c3=O)c(C(=O)NS(=O)(=O)C3CC3)n(Cc3cc(F)ccc3F)c2cc1F | 14

[P] CCc1ccc2c(c1)c(-c1ccc[nH]c1=O)c(C(=O)NS(=O)(=O)C(C)C)n2Cc1cc(F)ccc1F
[Q] CCc1ccc2c(c1)c(-c1ccc[nH]c1=O)c(C(=O)NS(=O)(=O)C1CC1)n2Cc1cc(F)ccc1F
stdin: Kindly compare P with Q and tell me which has the lower AUC(0-t) at 24 h figure. Record your answer as the label of the chosen record.
stdout: P

---

target: Cytochrome P450 2C9 (Homo sapiens, UniProt P11712); experiment: Inhibition of CYP2C9 co-incubated with substrate; type: ADME
Sequence (P11712 whole entry): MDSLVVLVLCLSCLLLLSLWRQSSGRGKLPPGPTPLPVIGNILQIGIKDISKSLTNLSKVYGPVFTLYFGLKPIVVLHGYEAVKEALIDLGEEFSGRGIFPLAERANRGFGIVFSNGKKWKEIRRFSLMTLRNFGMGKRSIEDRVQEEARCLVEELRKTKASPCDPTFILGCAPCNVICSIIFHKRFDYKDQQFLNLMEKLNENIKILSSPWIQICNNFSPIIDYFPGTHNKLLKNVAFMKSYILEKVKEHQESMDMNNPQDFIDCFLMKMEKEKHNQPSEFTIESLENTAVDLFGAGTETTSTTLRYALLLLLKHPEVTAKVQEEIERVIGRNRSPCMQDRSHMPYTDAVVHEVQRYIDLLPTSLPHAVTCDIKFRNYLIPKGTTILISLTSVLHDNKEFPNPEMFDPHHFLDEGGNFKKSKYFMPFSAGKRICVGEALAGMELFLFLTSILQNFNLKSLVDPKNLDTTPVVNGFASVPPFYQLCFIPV
READOUT TYPE: IC50

stdin: Recorded IC50 of "Cc1cc2c(-c3ccc[nH]c3=O)c(C(=O)NS(=O)(=O)C3CC3)n(Cc3cc(F)ccc3F)c2cc1F" , please.
stdout: > 20 µM

---

assay: AUC (0 to 24 hrs) in rat at 10 mg/kg, po; assay type: ADME, organism-based; design: time < 24 hr, dose 10 mg/kg, route oral; conditions: plasma
READOUT TYPE: AUC(0-t) at 24 h (µM·h)

CC1(c2ccc3c(c2)c(-c2ccc[nH]c2=O)c(C(=O)NS(=O)(=O)C2CC2)n3Cc2cc(F)ccc2F)CC1 | 11

[1] CCS(=O)(=O)NC(=O)c1c(-c2ccc[nH]c2=O)c2cc(C)ccc2n1Cc1cc(F)ccc1F
[2] O=C(NS(=O)(=O)C1CC1)c1c(-c2ccc[nH]c2=O)c2cc(C(F)(F)F)ccc2n1Cc1cc(F)ccc1F
stdin: Kindly compare 1 with 2 and tell me which has the lower AUC(0-t) at 24 h figure. Record your answer as the label of the chosen record.
stdout: 2

---

test: AUC (0 to 24 hrs) in rat at 10 mg/kg, po; type: ADME, organism-based; design: time < 24 hr, dose 10 mg/kg, route oral; settings: plasma
READOUT TYPE: AUC(0-t) at 24 h (µM·h)

CC(C)(C)c1ccc2c(c1)c(-c1ccc[nH]c1=O)c(C(=O)NS(=O)(=O)C1CC1)n2Cc1cc(F)ccc1F | 8

[A] Cc1ccc2c(c1)c(-c1ccc[nH]c1=O)c(C(=O)NS(=O)(=O)C(C)C)n2Cc1cc(F)ccc1F
[B] Cc1cc2c(-c3ccc[nH]c3=O)c(C(=O)NS(=O)(=O)C3CC3)n(Cc3cc(F)ccc3F)c2cc1C(F)(F)F
stdin: Kindly compare A with B and tell me which has the lower AUC(0-t) at 24 h figure. Record your answer as the label of the chosen record.
stdout: B
(B: 0.69 µM·h, A: 6.8 µM·h)

---

target: UniProt P10635; assay: Inhibition of CYP2D6 co-incubated with substrate; assay type: ADME
Sequence (P10635 whole entry): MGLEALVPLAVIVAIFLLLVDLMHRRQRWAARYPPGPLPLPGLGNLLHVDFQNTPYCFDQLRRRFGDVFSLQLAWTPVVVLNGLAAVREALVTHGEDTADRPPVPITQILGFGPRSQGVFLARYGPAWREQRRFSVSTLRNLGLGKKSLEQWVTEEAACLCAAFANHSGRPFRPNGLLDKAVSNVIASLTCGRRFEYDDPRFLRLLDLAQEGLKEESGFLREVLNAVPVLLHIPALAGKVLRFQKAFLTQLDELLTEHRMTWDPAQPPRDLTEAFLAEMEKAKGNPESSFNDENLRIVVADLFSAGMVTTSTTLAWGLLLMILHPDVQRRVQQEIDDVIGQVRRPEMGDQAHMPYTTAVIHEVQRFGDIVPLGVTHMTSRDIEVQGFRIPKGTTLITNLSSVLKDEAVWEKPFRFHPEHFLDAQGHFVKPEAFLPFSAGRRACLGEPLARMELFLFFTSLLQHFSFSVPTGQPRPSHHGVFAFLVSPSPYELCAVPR
READOUT TYPE: IC50

stdin: Recorded IC50 of "Cc1cc2c(-c3ccc[nH]c3=O)c(C(=O)NS(=O)(=O)C3CC3)n(Cc3cc(F)ccc3F)c2cc1F" , please.
stdout: > 20 µM

---

test: Permeability from apical to basal side of human Caco2 cells; assay type: ADME, cell-based; settings: Caco-2, read-out: permeability
READOUT TYPE: Papp A→B (×10⁻⁶ cm/s)
Give a bare numeral; the unit ×10⁻⁶ cm/s is implied.

stdin: Recorded Papp A→B of "Cc1cc2c(-c3ccc[nH]c3=O)c(C(=O)NS(=O)(=O)C3CC3)n(Cc3cc(F)ccc3F)c2cc1F" , please.
stdout: 3.5

---

target: Cytochrome P450 2C19 (Homo sapiens); assay: Inhibition of CYP2C19 co-incubated with substrate; format: ADME
Sequence (P33261 whole entry): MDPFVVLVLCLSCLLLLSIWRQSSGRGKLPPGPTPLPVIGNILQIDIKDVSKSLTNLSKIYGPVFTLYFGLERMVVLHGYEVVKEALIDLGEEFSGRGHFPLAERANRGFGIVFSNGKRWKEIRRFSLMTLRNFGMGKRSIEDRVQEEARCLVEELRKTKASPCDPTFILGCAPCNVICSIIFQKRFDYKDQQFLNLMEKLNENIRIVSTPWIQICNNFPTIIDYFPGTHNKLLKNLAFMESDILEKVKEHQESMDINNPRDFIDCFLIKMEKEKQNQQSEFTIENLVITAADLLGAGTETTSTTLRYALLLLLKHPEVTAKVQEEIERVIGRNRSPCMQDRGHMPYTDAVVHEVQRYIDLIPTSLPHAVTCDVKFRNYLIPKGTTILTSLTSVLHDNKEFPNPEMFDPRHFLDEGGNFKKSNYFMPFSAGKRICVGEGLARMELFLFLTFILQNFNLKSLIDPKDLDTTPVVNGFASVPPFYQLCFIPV
pIC50: −log10 of the molar value.
READOUT TYPE: pIC50

stdin: Tell me reported pIC50 for "Cc1cc2c(-c3ccc[nH]c3=O)c(C(=O)NS(=O)(=O)C3CC3)n(Cc3cc(F)ccc3F)c2cc1F" , tested with Cytochrome P450 2C19 (Homo sapiens).
stdout: < 4.70

---

biological target: UniProtKB P33261; test: Inhibition of CYP2C19 preincubated prior to substrate addition; assay type: ADME
READOUT TYPE: IC50

stdin: Recorded IC50 of "Cc1cc2c(-c3ccc[nH]c3=O)c(C(=O)NS(=O)(=O)C3CC3)n(Cc3cc(F)ccc3F)c2cc1F" , please.
stdout: > 20 µM

---

target: Cytochrome P450 3A4 (Homo sapiens, UniProt P08684); experiment: Inhibition of CYP3A4 co-incubated with substrate; format: ADME
Sequence (P08684 whole entry): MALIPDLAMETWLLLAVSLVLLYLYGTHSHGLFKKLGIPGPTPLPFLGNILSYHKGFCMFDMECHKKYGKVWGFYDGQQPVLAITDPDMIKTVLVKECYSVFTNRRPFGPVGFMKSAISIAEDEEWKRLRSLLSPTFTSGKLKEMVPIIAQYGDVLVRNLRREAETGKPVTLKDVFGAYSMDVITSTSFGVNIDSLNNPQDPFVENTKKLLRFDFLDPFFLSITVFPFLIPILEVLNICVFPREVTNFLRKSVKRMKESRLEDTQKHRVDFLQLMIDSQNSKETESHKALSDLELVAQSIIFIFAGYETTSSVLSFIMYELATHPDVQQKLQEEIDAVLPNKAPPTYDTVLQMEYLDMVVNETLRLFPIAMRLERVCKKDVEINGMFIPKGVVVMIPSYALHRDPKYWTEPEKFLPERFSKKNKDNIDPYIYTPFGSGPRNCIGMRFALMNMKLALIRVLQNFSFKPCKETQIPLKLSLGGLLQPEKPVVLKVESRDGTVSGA
pIC50: −log10 of the molar value.
READOUT TYPE: pIC50

stdin: Recorded pIC50 of "Cc1cc2c(-c3ccc[nH]c3=O)c(C(=O)NS(=O)(=O)C3CC3)n(Cc3cc(F)ccc3F)c2cc1F" , please.
stdout: < 4.70

---

biological target: UniProtKB P10635; test: Inhibition of CYP2D6 preincubated prior to substrate addition; assay type: ADME
pIC50: −log10 of the molar value.
READOUT TYPE: pIC50

stdin: Tell me reported pIC50 for "Cc1cc2c(-c3ccc[nH]c3=O)c(C(=O)NS(=O)(=O)C3CC3)n(Cc3cc(F)ccc3F)c2cc1F" , tested with UniProtKB P10635.
stdout: < 4.70

---

target: Cytochrome P450 3A4 (Homo sapiens, UniProt P08684); experiment: Inhibition of CYP3A4 preincubated prior to substrate addition; format: ADME
READOUT TYPE: IC50

stdin: Recorded IC50 of "Cc1cc2c(-c3ccc[nH]c3=O)c(C(=O)NS(=O)(=O)C3CC3)n(Cc3cc(F)ccc3F)c2cc1F" , please.
stdout: > 20 µM

---

assay: AUC (0 to 24 hrs) in dog at 2 mg/kg, po; assay type: ADME, organism-based, Canis lupus familiaris; set-up: time < 24 hr, dose 2 mg/kg, route oral; details: plasma
READOUT TYPE: AUC(0-t) at 24 h (µM·h)
Give a bare numeral; the unit µM·h is implied.

stdin: Recorded AUC(0-t) at 24 h of "Cc1cc2c(-c3ccc[nH]c3=O)c(C(=O)NS(=O)(=O)C3CC3)n(Cc3cc(F)ccc3F)c2cc1F" , please.
stdout: 8

Data credit: ChEMBL document CHEMBL2010765
